The molecules listed here are annotated with their % Remaining of Initial (n = 1), 20 min.
ASSAY OVERVIEW: in vitro
STATED CONDITIONS: male, Beagle, dog, s9, 20 min, 1 μM

Take a look at these entries with their results.
| MOLECULE | OBSERVED |
| --- | --- |
| CCCCCCCCCCCCCCCC(=O)NCCOC(=O)CCC(=O)OCC(O)CO (stereo not drawn) [Compound I-9] | <1.0% |
| CCCCCCCCCCCCCCCC(=O)NCCOC(=O)CCC(=O)OCC(COC(=O)CCCCCCC)OC(=O)CCCCCCC (stereo not drawn) [Compound I-3, PEA-Succinate-Glycerol-Di-Caprylic] | 89% |

Here is the next item to consider.
Q: Value lookup for % Remaining of Initial (n = 1), 20 min; key = CCCCCCCCCCCCCCCC(=O)NCCOC(=O)CCC [Compound I-2]
A: 2.0%
